# assay_comment: Plasma clearance in mouse at 50 mg/kg, po and 1 mg/kg, iv
# Assay type: ADME, organism-based
experimental_readout: clearance (mL/min/kg)
Answers are plain numbers, in mL/min/kg.

Which value of clearance has been reported for CCC1(C)NC(=O)c2cc(S(=O)(=O)Nc3ccc(F)cc3F)cc(Cl)c2NC1=O (stereo unspecified) in the records?
29

###

# assay_comment: Unbound fraction in mouse plasma by equilibrium dialysis method
# Format: ADME, cell-free
experimental_readout: fraction unbound

Which value of fraction unbound has been reported for CCC1(C)NC(=O)c2cc(S(=O)(=O)Nc3ccc(F)cc3F)cc(Cl)c2NC1=O (stereo unspecified) in the records?
0.037

###

# target_or_test_system: Cytochrome P450 2C9 (Homo sapiens)
# Sequence (P11712 whole entry): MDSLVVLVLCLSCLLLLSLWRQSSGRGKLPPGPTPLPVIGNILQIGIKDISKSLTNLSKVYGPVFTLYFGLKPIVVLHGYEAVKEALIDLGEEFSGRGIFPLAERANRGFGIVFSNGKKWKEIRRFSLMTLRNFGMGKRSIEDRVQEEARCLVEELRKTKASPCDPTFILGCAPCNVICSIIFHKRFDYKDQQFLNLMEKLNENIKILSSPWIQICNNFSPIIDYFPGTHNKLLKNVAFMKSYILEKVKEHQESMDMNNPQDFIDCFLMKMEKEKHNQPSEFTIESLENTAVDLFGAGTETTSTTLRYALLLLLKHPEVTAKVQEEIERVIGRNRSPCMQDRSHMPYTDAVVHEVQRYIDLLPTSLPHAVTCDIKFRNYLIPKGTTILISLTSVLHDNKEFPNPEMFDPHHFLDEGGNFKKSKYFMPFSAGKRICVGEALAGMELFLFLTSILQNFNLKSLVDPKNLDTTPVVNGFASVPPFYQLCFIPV
experimental_readout: IC50

Which value of IC50 has been reported for CCC1(C)NC(=O)c2cc(S(=O)(=O)Nc3ccc(F)cc3F)cc(Cl)c2NC1=O (stereo unspecified) in the records?
> 30 µM

###

# assay_comment: Volume of distribution at steady state in mouse at 50 mg/kg, po and 1 mg/kg, iv
# Assay type: ADME, organism-based
# experimental_context: in vivo, read-out: Vdss
experimental_readout: Vd (L/kg)
Answers are plain numbers, in L/kg.

Which value of Vd has been reported for CCC1(C)NC(=O)c2cc(S(=O)(=O)Nc3ccc(F)cc3F)cc(Cl)c2NC1=O (stereo unspecified) in the records?
0.5

###

# assay_comment: Apparent permeability of the compound from apical to basolateral side in human Caco2 cells
# experimental_context: Caco-2, Papp
For each of the molecules below, state its Papp A→B.
One number for each entry, in ×10⁻⁶ cm/s.

molecule: CC[C@]1(C)NC(=O)c2cc(S(=O)(=O)Nc3ccc(C(F)(F)F)cc3F)ccc2NC1=O
experimental_readout: Papp A→B
measurement_unit: ×10⁻⁶ cm/s
observed_measurement: 9

Parameters: items (list). Returns: Papp A→B for each item.
1. CC1(C)NC(=O)c2cc(S(=O)(=O)Nc3ccc(C(F)(F)F)cc3)ncc2NC1=O
2. Cc1cc(S(=O)(=O)Nc2ccc(C(F)(F)F)cc2)cc2c1NC(=O)C(C)(C)NC2=O
3. CCC1(C)NC(=O)c2cc(S(=O)(=O)Nc3ccc(F)cc3F)cc(C)c2NC1=O (single isomer, unassigned; enantiomer 2)
4. CC1(C)NC(=O)c2cc(S(=O)(=O)Nc3ccc(F)cc3F)ccc2NC1=O
5. COc1c(S(=O)(=O)Nc2ccc(C(F)(F)F)cc2)ccc2c1C(=O)NC(C)(C)C(=O)N2
6. COc1cc(S(=O)(=O)Nc2ccc(C(F)(F)F)cc2)cc2c1NC(=O)C(C)(C)NC2=O
7. CC1(C)NC(=O)c2cc(S(=O)(=O)Nc3ccc(F)cc3F)cc(C(F)(F)F)c2NC1=O
8. CCc1cc(S(=O)(=O)Nc2ccc(F)cc2F)cc2c1NC(=O)C(C)(CC)NC2=O (racemic)

1. 1
2. 7
3. 14
4. 5
5. 7
6. 12
7. 46
8. 24

Parameters: items (list). Returns: Papp A→B for each item.
1. CCC1(C)NC(=O)c2cc(S(=O)(=O)Nc3ccc(F)cc3F)cc(OC)c2NC1=O (racemic)
2. COc1cc2c(cc1S(=O)(=O)Nc1ccc(C(F)(F)F)cc1)C(=O)NC(C)(C)C(=O)N2
3. CC1(C)NC(=O)c2cc(S(=O)(=O)Nc3ccc(C(F)(F)F)cc3)ccc2NC1=O

1. 22
2. 1
3. 6

Parameters: items (list). Returns: Papp A→B for each item.
1. CCC1(C)NC(=O)c2cc(S(=O)(=O)Nc3ccc(C(F)(F)F)cc3OC)cc(Cl)c2NC1=O (centres undefined)
2. CC1(C)NC(=O)c2cc(S(=O)(=O)Nc3ccc(C(F)(F)F)cc3)cnc2NC1=O

[58, 10]
